Where do the numbers come from? From ChEMBL document CHEMBL1961873.

Target: Insulin receptor (Homo sapiens) (UniProt P06213);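 also: each figure is a mean inhibition value from the GSK PKIS screening panel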
Sequence (P06213 28-758 limits assumed): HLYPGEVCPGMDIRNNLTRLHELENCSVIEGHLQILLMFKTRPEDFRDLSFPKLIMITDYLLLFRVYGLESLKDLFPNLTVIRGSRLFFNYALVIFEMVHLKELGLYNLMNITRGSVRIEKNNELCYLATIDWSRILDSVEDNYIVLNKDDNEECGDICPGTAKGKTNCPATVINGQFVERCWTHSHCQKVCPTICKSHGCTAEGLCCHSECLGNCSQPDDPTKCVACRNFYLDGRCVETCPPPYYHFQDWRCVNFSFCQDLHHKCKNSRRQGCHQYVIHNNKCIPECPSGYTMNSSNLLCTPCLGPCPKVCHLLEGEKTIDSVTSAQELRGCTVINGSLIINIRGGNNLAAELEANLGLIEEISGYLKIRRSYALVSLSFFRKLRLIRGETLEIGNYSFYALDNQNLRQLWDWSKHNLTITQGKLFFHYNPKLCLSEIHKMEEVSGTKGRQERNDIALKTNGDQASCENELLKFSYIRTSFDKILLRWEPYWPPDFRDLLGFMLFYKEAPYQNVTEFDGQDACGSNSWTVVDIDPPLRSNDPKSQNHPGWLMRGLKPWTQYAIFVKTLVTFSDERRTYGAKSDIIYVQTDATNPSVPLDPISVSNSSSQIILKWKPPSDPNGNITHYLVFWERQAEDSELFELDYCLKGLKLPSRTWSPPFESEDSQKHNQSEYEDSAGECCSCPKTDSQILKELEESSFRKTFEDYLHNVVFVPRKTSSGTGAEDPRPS
Sequence (P06213 763-1382 limits assumed): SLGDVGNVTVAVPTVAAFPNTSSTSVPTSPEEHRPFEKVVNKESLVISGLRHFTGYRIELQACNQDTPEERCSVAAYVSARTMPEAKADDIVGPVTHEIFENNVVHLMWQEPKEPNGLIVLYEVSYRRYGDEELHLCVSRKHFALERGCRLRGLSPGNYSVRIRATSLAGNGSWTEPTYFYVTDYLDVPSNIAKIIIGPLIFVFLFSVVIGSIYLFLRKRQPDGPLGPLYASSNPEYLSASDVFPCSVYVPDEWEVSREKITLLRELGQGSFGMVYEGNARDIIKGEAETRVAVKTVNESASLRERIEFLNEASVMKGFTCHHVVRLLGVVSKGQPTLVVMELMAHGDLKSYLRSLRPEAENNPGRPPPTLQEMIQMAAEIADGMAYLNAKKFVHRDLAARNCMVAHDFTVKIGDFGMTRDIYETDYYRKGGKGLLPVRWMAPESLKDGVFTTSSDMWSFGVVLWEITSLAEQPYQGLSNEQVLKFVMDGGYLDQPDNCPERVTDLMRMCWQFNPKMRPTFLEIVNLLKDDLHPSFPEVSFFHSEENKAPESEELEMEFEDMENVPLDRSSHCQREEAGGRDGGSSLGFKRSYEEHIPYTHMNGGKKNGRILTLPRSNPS
Settings: at 1 µM
quantity: inhibition
Lab note: write values as number then unit, every time.

Task: Can you share its inhibition? I mean this molecule: C[C@@H](Oc1cc(-n2cnc3ccc(OCC4CCN(C)CC4)cc32)sc1C(N)=O)c1ccccc1Cl
Output: 8.87%

Task: Try the molecule Cc1ccc(C(=O)NC(C)C)cc1-c1ccc(C(=O)NCC2CC2)cc1
Output: -4.51%

Task: Please give the result for Fc1ccc(-c2ncn(C3CCNCC3)c2-c2ccnc(Oc3ccc4c(c3)OCO4)n2)cc1 too.
Output: 3.42%

Task: What would you report for Nc1nccc(-c2c(-c3ccc(F)cc3)ncn2C2CCC(O)CC2)n1 (stereo not drawn) ?
Output: -0.36%

Task: Entry NC(=O)c1ccc(Oc2nccc(-c3c(-c4ccc(F)cc4)ncn3C3CCNCC3)n2)cc1 please
Output: 6.48%

Task: Further, for Clc1ccc(CNc2nccc(-c3cnn4ncccc34)n2)cc1 ?
Output: 1.97%

Task: Query O=C(Nc1n[nH]c2cc(-c3cc(F)ccc3F)ccc12)C1CC1 next
Output: 4.97%

Task: What do we get for CCC(=O)Nc1ccc(C)c(-c2ccc(C(=O)NCC3CC3)cc2)c1 ?
Output: 5.36%
